Data credit: the kinase profiling compilation of Christmann-Franck et al. (2016)

- ASSAY TARGET: RPS6KA2 KD1 (human) (UniProt Q15349)
- Sequence (Q15349 whole entry, looked up): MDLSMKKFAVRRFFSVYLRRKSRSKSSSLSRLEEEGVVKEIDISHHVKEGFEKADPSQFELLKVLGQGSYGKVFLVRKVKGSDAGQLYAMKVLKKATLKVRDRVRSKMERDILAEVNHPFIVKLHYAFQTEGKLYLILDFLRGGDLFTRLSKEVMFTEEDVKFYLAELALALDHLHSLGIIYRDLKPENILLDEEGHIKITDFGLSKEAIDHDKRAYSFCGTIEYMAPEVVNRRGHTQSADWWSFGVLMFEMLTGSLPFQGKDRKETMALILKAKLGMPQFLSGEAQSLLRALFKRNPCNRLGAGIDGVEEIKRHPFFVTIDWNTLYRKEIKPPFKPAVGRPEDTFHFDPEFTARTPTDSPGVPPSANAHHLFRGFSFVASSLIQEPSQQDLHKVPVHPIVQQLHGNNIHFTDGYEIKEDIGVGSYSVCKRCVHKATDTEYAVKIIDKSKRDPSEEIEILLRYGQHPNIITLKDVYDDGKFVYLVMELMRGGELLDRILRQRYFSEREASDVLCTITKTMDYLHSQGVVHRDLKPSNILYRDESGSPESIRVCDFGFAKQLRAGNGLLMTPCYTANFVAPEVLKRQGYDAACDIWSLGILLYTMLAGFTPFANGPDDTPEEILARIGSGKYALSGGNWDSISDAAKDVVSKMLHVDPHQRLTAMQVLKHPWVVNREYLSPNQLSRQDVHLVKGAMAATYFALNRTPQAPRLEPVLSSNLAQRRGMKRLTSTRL
- ASSAY: split-luciferase competition binding
- CONDITION SUMMARY: compound 10.0 µM
MEASURED ATTRIBUTE: inhibition (%)

# COMPOUND, inhibition (%)
records = [
    ("O=S(=O)(c1cccc2cnccc12)N1CCCNCC1", 0),
]

(a) COc1cc2ncnc(Nc3ccc(F)c(Cl)c3)c2cc1OCCCN1CCOCC1
(b) CCN(CC)CCCCN1c2ccccc2Oc2ccc(Cl)cc21
(c) O=C1NC(=O)c2cc(Nc3ccc(F)cc3)c(Nc3ccc(F)cc3)cc21
Exercise: Task field, ranking: reported inhibition, descending order. List the labels in the requested order.
Solution: b, c, a
(b: 7%, c: 3%, a: 0%)

(a) COc1cc(CC2C(=O)OC[C@@H]2Cc2ccc(OC)c(OC)c2)ccc1O (stereo partly specified)
(b) CC(C)(C)n1nc(-c2ccc(Cl)cc2)c2c(N)ncnc21
Exercise: Of a and b , which one carries the higher reported inhibition? Which one? Tell me its label.
Solution: b
(b: 4%, a: 0%)
